Reference for the values: PubChem BioAssay

Assay: basal MM1S mitochondrial membrane potential changes, profiling panel, cell-based, JC-1 fluorescence, 24 h, 100 nL compound (AID 1170); further: test concentration not given here
Settings: higher = more signal
// map z-score to label using category 1 = under -0.7, category 2 = from -0.7 up to -0.01, category 3 = -0.01 and over

Answered examples (3):
- compound: "CC(C)(C)N1C(=O)[C@H]2[C@H]3[C@H](O)[C@H](O)CC(=NO[C@@H]4O[C@H](CO)[C@@H](O)[C@H](O)[C@H]4O)[C@@H]3CC[C@H]2C1=O"
  qualitative-label: "category 1"
- compound: "N#Cc1ccc(NN2C(C(O)c3cccc4ccccc34)C=CC3C(=O)N(c4ccccc4)C(=O)C32)cc1 (centres undefined)"
  qualitative-label: "category 2"
- compound: "NCCCCCNC(=O)[C@@H]1C[C@@H]2C(=O)N3CCC[C@H]3C(=O)N2[C@@H]1c1cccc(OCCO)c1"
  qualitative-label: "category 3"

*Q* Kindly identify the class of COC(=O)[C@@H]1N=C(c2ccc(OCCCO)cc2)O[C@@H]1c1ccccc1N=[N+]=[N-] .
*A* category 2

*Q* Kindly identify the class of CO[C@@H]1COC(=O)CC=C[C@@H](C)[C@@H]2C=C[C@@H](O)[C@@H](COC(=O)CC=C[C@H]1C)O2 .
*A* category 3

*Q* Kindly identify the class of CC(C)CON=C1[C@H]2CCn3c(=O)n(-c4ccccc4)c(=O)n3[C@H]2[C@H](O)[C@@H]2O[C@H]12 .
*A* category 2

*Q* Kindly identify the class of C[C@@H]1C=CCC(=O)OC[C@H](C)C(=O)N2CCC[C@H]2C(=O)OC1 .
*A* category 2

*Q* Kindly identify the class of C[C@H](c1ccccc1)N1C(=O)[C@H]2[C@@H]3C(=CC[C@H]2C1=O)C(=O)[C@H]1O[C@H]1[C@H]3O .
*A* category 1

*Q* Kindly identify the class of CC(C)=CCCC(C)=CCON=C1[C@H]2CCn3c(=O)n(C)c(=O)n3[C@H]2[C@H](O)[C@@H]2O[C@H]12 .
*A* category 1
